// provenance: the Immune Epitope Database (IEDB)

Items are presented alongside their recorded pKd.
Target: HLA-A*02:01
Test: IEDB peptide-MHC binding, purified MHC/competitive/fluorescence; filed as Kd, often an IC50 or EC50 that approximates it; bounds were set here for any values at or beyond the usual limits of such assays
Conditions: source organism: West Nile virus
The value called pKd is obtained by taking minus log10 of the concentration in mol/L.

>>> df
   sequence_string  observed_result
0        SLYAVTTAV             8.86

Enquiry: Please look up its pKd: SLFGQRIEV
Return: 9.05

###

Biological target: HLA-B*27:05
Test: IEDB peptide-MHC binding, purified MHC/direct/fluorescence; filed as Kd, often an IC50 or EC50 that approximates it; bounds were set here for any values at or beyond the usual limits of such assays
Settings: source organism: Orthohantavirus andesense
Metric: Kd

Enquiry: Please report the recorded Kd for TRDHVNLVL .
Return: ≥ 20 µM

###

Target: HLA-A*24:02
Assay: IEDB peptide-MHC binding, purified MHC/direct/fluorescence; filed as Kd, often an IC50 or EC50 that approximates it; bounds were set here for any values at or beyond the usual limits of such assays
Conditions: source organism: Escherichia coli O157:H7
pKd: −log10 of the molar value.
Metric: pKd

In [3]: df
Out[3]:
   sequence_string  assayed_system  observed_result
0        KPKLKVATL     HLA-A*24:02           ≤ 4.70

Enquiry: Query the reported pKd for HLA-A*24:02; item: QMRVRYYGL
Return: ≤ 4.70

###

Target: HLA-A*01:01
Experiment: IEDB peptide-MHC binding, purified MHC/competitive/radioactivity; filed as Kd, often an IC50 or EC50 that approximates it; bounds were set here for any values at or beyond the usual limits of such assays
Conditions: source organism: Dengue virus 3 Singapore/8120/1995
Metric: pKd
Please keep in mind that pKd is minus log10 of the molar concentration; only the number is needed.

Enquiry: Would you kindly share the measured pKd for VVQHENLKY ?
Return: 5.62

###

Biological target: HLA-A*02:01
Assay: IEDB peptide-MHC binding, purified MHC/competitive/radioactivity; bounds were set here for any values at or beyond the usual limits of such assays
Conditions: source organism: Hepatitis B virus
Metric: pIC50
Interpret pIC50 as the negative base-10 log of the concentration measured in mol/L.

Enquiry: Look up pIC50: TVLEYLVSFGV
Return: 6.53

###

Biological target: HLA-C*12:03
Experiment: IEDB peptide-MHC binding, purified MHC/direct/fluorescence; filed as Kd, often an IC50 or EC50 that approximates it; bounds were set here for any values at or beyond the usual limits of such assays
Conditions: source organism: Toxoplasma gondii ME49
Metric: Kd (nM)
Give the quantity in nM, number only.

Enquiry: // lookup Kd for RATSHVPEF
Return: 148

###

Target: HLA-A*02:12
Assay: IEDB peptide-MHC binding, purified MHC/direct/fluorescence; filed as Kd, often an IC50 or EC50 that approximates it; bounds were set here for any values at or beyond the usual limits of such assays
Settings: source organism: Maporal virus
Metric: Kd

Enquiry: # get_value(readout= Kd, system= HLA-A*02:12) for TRDHVNLVL
Return: ≥ 20 µM

###

Target: HLA-A*03:01
Test: IEDB peptide-MHC binding, purified MHC/direct/fluorescence; filed as Kd, often an IC50 or EC50 that approximates it; bounds were set here for any values at or beyond the usual limits of such assays
Details: source organism: Zaire ebolavirus
pKd: −log10 of the molar value.
Metric: pKd

Some sequences with recorded pKd:
>>> print(df.to_string())
   sequence_string  assayed_system  metric  observed_result
0        NFFHASLAY     HLA-A*03:01     pKd           ≤ 4.70
1        VLMKQIPIW     HLA-A*03:01     pKd           ≤ 4.70

Pending sequence:
Enquiry: Report pKd for TPSGKRLQI please.
Return: ≤ 4.70
